Values were extracted from patent US12398154B2.

Biological target: KRas G12D (Homo sapiens, UniProt P01116, G12D);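 further: TR-FRET displacement binding assay on KRas, read after a one-hour incubation at room temperature, IC50 fitted from percent-of-control values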
Sequence (P01116 1-169 isoform P01116-2 G12D): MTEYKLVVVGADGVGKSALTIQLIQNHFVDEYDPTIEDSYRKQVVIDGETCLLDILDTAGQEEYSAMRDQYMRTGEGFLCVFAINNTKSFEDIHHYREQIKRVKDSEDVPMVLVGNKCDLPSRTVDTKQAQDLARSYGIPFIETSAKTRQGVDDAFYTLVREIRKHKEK
Experiment: biochemical
Recorded endpoint: IC50 (nM)

[[record]]
compound = "Fc1c(-c2cccc3cccc(F)c23)ncc2c(NCc3ccc4nccn4c3)nc(OCC34CCCN3CCC4)nc12 [Example 208]"
result_qualifier = "="
test_result = 17400

[[record]]
compound = "CCc1cccc2cccc(-c3ncc4c(N5CCOCC(C)(O)C5)nc(OCC56CCCN5CCC6)nc4c3F)c12 (stereo not drawn) [Example 291]"
result_qualifier = "="
test_result = 140

[[record]]
compound = "O=C1NCC12CCCN(c1nc(OC[C@@]34CCCN3C[C@H](F)C4)nc3c(F)c(-c4cc(O)cc5ccc(F)c(Cl)c45)ncc13)C2 (stereo partly drawn) [Example 424]"
result_qualifier = "="
test_result = 3

[[record]]
compound = "Cc1cc2[nH]ncc2c(-c2ncc3c(N4CCCC(C)(O)C4)nc(OCC45CCCN4CCC5)nc3c2F)c1C1CC1 (stereo not drawn) [Example 144]"
result_qualifier = "="
test_result = 43

[[record]]
compound = "Cc1cc2[nH]ncc2c(-c2ncc3c(N4CCOCC(C)(O)C4)nc(OCC45CCCN4CCC5)nc3c2F)c1C (stereo not drawn) [Example 522]"
result_qualifier = "="
test_result = 292

[[record]]
compound = "CC1(O)CCCN(c2nc(OCC34CCCN3CCC4)nc3c(F)c(-c4cccc5cccc(F)c45)ncc23)C1 (stereo not drawn) [Example 17]"
result_qualifier = "="
test_result = 746

[[record]]
compound = "CCc1c(F)ccc2cc(O)cc(-c3ncc4c(N5CCCC6(CSC6)C5)nc(OC[C@@]56CCCN5C[C@H](F)C6)nc4c3F)c12 [Example 365]"
result_qualifier = "≤"
test_result = 2

[[record]]
compound = "Fc1c(-c2cccc3cccc(F)c23)ncc2c(N3CCCC(c4nc[nH]n4)C3)nc(OCC34CCCN3CCC4)nc12 (stereo not drawn) [Example 30]"
result_qualifier = "="
test_result = 209

[[record]]
compound = "Fc1c(-c2cccc3cccc(F)c23)ncc2c(N3CCCC4(CC(F)C4)C3)nc(OCC34CCCN3CCC4)nc12 (stereo not drawn) [Example 234]"
result_qualifier = "="
test_result = 2020

[[record]]
compound = "CCc1c(F)ccc2cc(O)cc(-c3ncc4c(N5CCCCC6(C5)NC(=O)NC6=O)nc(OC[C@@]56CCCN5C[C@H](F)C6)nc4c3F)c12 (stereo partly drawn) [Example 338]"
result_qualifier = "≤"
test_result = 2

[[record]]
compound = "Fc1c(-c2cccc3cccc(F)c23)ncc2c(NCc3ncc4cc[nH]c4n3)nc(OCC34CCCN3CCC4)nc12 [Example 92]"
result_qualifier = "="
test_result = 20800

[[record]]
compound = "Cc1cccc2cccc(-c3ncc4c(N5CCCC6(C5)NC(=O)NC6=O)nc(OCC56CCCN5CCC6)nc4c3F)c12 (stereo not drawn) [Example 448]"
result_qualifier = "="
test_result = 87

[[record]]
compound = "CCc1c(F)ccc2cc(O)cc(-c3ncc4c(N5CCC6(CC5)CC(=O)N6)nc(OC[C@@]56CCCN5C[C@H](F)C6)nc4c3F)c12 [Example 73]"
result_qualifier = "="
test_result = 5

[[record]]
compound = "O=C1NC(=O)C2CN(c3nc(OC[C@@]45CCCN4C[C@H](F)C5)nc4c(F)c(-c5cc(O)cc6ccc(F)c(Cl)c56)ncc34)CC12 (stereo partly drawn) [Example 423]"
result_qualifier = "≤"
test_result = 2

[[record]]
compound = "CCc1c(F)ccc2cc(O)cc(-c3ncc4c(N5C[C@@H](C)C[C@@H](O)C5)nc(OC[C@@]56CCCN5C[C@H](F)C6)nc4c3F)c12 [Example 180]"
result_qualifier = "="
test_result = 4

[[record]]
compound = "CCc1c(F)ccc2cc(O)cc(-c3ncc4c(N5CCOCC(CO)C5)nc(OC[C@@]56CCCN5C[C@H](F)C6)nc4c3F)c12 (stereo partly drawn) [Example 74]"
result_qualifier = "≤"
test_result = 2

[[record]]
compound = "CC1(O)CCCN(c2nc(OCC34CCCN3CCC4)nc3c(F)c(-c4cccc5sc(N)nc45)ncc23)C1 (stereo not drawn) [Example 67]"
result_qualifier = "="
test_result = 10400

[[record]]
compound = "CCc1c(F)ccc2cc(O)cc(-c3ncc4c(N5CCCC6(CCC6O)C5)nc(OC[C@@]56CCCN5C[C@H](F)C6)nc4c3F)c12 (stereo partly drawn) [Example 351]"
result_qualifier = "="
test_result = 13

[[record]]
compound = "CCNC(=O)c1cc2n(n1)CCCN(c1nc(OC[C@@]34CCCN3C[C@H](F)C4)nc3c(F)c(-c4cc(O)cc5ccc(F)c(CC)c45)ncc13)C2 [Example 356]"
result_qualifier = "≤"
test_result = 2

[[record]]
compound = "CCc1c(F)ccc2cc(O)cc(-c3ncc4c(N5CCCn6nc(C(=O)NCCO)cc6C5)nc(OC[C@@]56CCCN5C[C@H](F)C6)nc4c3F)c12 [Example 506]"
result_qualifier = "≤"
test_result = 2

[[record]]
compound = "CCc1c(F)ccc2cc(O)cc(-c3ncc4c(N5CCCn6nc(C(=O)N(C)CC)cc6C5)nc(OC[C@@]56CCCN5C[C@H](F)C6)nc4c3F)c12 [Example 358]"
result_qualifier = "≤"
test_result = 2


====

Listed compounds paired with reported log10 of IC50
Biological target: KRas G12C (Homo sapiens, UniProt P01116, G12C)
Sequence (P01116 1-169 isoform P01116-2 G12C): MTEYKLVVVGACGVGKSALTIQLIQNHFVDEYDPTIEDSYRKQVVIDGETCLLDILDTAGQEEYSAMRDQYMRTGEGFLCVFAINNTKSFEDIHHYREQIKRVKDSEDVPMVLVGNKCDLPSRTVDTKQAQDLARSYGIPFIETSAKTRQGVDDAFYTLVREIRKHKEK
Assay: biochemical
Recorded endpoint: log10 of IC50 (log10 of the value in µM)

[[record]]
compound = "O=C1CC2(CCCN(c3nc(OCC45CCCN4CCC5)nc4c(F)c(-c5cccc6cccc(CCF)c56)ncc34)C2)N1 (stereo not shown) [Example 470]"
recorded_endpoint = "log10 of IC50"
test_result = -0.46

[[record]]
compound = "O=C1CC(CNc2nc(OCC34CCCN3CCC4)nc3c(F)c(-c4cccc5cccc(F)c45)ncc23)CN1 (stereo not shown) [Example 29]"
recorded_endpoint = "log10 of IC50"
test_result = 0.64

[[record]]
compound = "O=C1CC2(CCCN(c3nc(OCC45CCCN4CCC5)nc4c(F)c(-c5cccc6cccc(Cl)c56)ncc34)C2)N1 (stereo not shown) [Example 283]"
recorded_endpoint = "log10 of IC50"
test_result = -1.11

[[record]]
compound = "Fc1c(-c2cccc3cccc(F)c23)ncc2c(N3CC(c4ccncc4)C3)nc(OCC34CCCN3CCC4)nc12 [Example 213]"
recorded_endpoint = "log10 of IC50"
test_result = 0.62

[[record]]
compound = "Fc1c(-c2cccc3cccc(F)c23)ncc2c(NCc3ccc4nonc4c3)nc(OCC34CCCN3CCC4)nc12 [Example 125]"
recorded_endpoint = "log10 of IC50"
test_result = 0.63

[[record]]
compound = "Cc1cccc2cccc(-c3ncc4c(N5CCCC(c6nc[nH]n6)C5)nc(OCC56CCCN5CCC6)nc4c3F)c12 (stereo not shown) [Example 455]"
recorded_endpoint = "log10 of IC50"
test_result = 0.93

[[record]]
compound = "O=CNC1CCCN(c2nc(OCC34CCCN3CCC4)nc3c(F)c(-c4cccc5cccc(F)c45)ncc23)C1 (stereo not shown) [Example 242]"
recorded_endpoint = "log10 of IC50"
test_result = 0.84

[[record]]
compound = "Cc1cc2[nH]ncc2c(-c2ncc3c(N4CCCC(C)(O)C4)nc(OCC45CCCN4CCC5)nc3c2F)c1C1CC1 (stereo not shown) [Example 144]"
recorded_endpoint = "log10 of IC50"
test_result = -1.11

[[record]]
compound = "OCc1n[nH]c(CNc2nc(OCC34CCCN3CCC4)nc3c(F)c(-c4cccc5cccc(Cl)c45)ncc23)n1 [Example 105]"
recorded_endpoint = "log10 of IC50"
test_result = 0.55

[[record]]
compound = "NS(=O)(=O)CC1CCCN(c2nc(OCC34CCCN3CCC4)nc3c(F)c(-c4cccc5cccc(F)c45)ncc23)C1 (stereo not shown) [Example 221]"
recorded_endpoint = "log10 of IC50"
test_result = -0.30

[[record]]
compound = "Nc1ncccc1CNc1nc(OCC23CCCN2CCC3)nc2c(F)c(-c3cccc4cccc(F)c34)ncc12 [Example 70]"
recorded_endpoint = "log10 of IC50"
test_result = -0.65

[[record]]
compound = "NC(=O)C1COCCN(c2nc(OCC34CCCN3CCC4)nc3c(F)c(-c4cccc5cccc(F)c45)ncc23)C1 (stereo not shown) [Example 270]"
recorded_endpoint = "log10 of IC50"
test_result = 0.45

[[record]]
compound = "O=C1NC2(CCN(c3nc(OCC45CCCN4CCC5)nc4c(F)c(-c5cccc6cccc(F)c56)ncc34)CC2)CO1 [Example 224]"
recorded_endpoint = "log10 of IC50"
test_result = 1.07

[[record]]
compound = "CCc1cccc2cccc(-c3ncc4c(N5CCOCC(CO)C5)nc(OCC56CCCN5CCC6)nc4c3F)c12 (stereo not shown) [Example 289]"
recorded_endpoint = "log10 of IC50"
test_result = -0.39

[[record]]
compound = "Fc1c(-c2cccc3cccc(F)c23)ncc2c(N3CCCC4(CCC4)C3)nc(OCC34CCCN3CCC4)nc12 [Example 232]"
recorded_endpoint = "log10 of IC50"
test_result = 1.13

